# Assay Info: chemical genetic growth profiling, strain panel (AID 1159580);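 further: tested at 20 µM; growth read once vehicle control cultures reached saturation at 30 °C; 1 = growth at the plate median or of vehicle wells; lower values mean less growth of the strain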
# Settings: S. cerevisiae deletion strains, growth OD, locus YEL003W, strain gim4, hits give low values
The whole screen tested about 5,500 compounds, of which about 2,000 (36%) were called active. Roughly 18% stayed inconclusive and do not appear here. This is one part of the list.
Known normalized growth of a selection of compounds
Respond with the number and no other words.

Past entries and their recorded results:
COC1=CC(=O)C[C@@H](C)[C@]12Oc1c(Cl)c(OC)cc(OC)c1C2=O
0.986
CC1CC2C3CC(F)C4=CC(=O)C=CC4(C)C3(F)C(O)CC2(C)C1(O)C(=O)CO (stereo not given)
1.01
C=Cc1c2[nH]c(c1C)C=c1[nH]c(c(C)c1C=C)=CC1N=C(C=c3[nH]c(c(C)c3CCC(=O)O)=C2)C(CCC(=O)O)=C1C (stereo not given)
1.05
CN(C)c1ccc(C(=C2C=CC(=[N+](C)C)C=C2)c2ccc(N(C)C)cc2)cc1
0.547

Any idea what normalized growth was measured for "CC1=C(C/C=C(\C)CCC[C@H](C)CCC[C@H](C)CCCC(C)C)C(=O)c2ccccc2C1=O" ?
0.977

----------
Known normalized growth of a selection of molecules
# Assay Info: chemical genetic growth profiling, strain panel (AID 1159580)
# Settings: S. cerevisiae deletion strains, growth OD, locus YML124C, strain tub3, hits give low values
The campaign covered roughly 5,500 compounds. About 2,000 (36%) were called active. Roughly 18% stayed inconclusive and do not appear here. The list shows a part of the results.
Respond with the number and no other words.

Any idea what normalized growth was measured for "C[N+](C)(C)CCCCCC[N+](C)(C)C" ?
0.995

----------
# Assay Info: chemical genetic growth profiling, strain panel (AID 1159580);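 further: tested at 20 µM; growth read once vehicle control cultures reached saturation at 30 °C; 1 = growth at the plate median or of vehicle wells; lower values mean less growth of the strain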
# Settings: S. cerevisiae deletion strains, growth OD, locus YER133W, strain GLC7
Screen size: about 5,500 compounds; about 2,000 (36%) were called active. Another 18% or so got no clear call; they are omitted. No stated cut-off is given here; in the data, active means normalized growth mostly below about 0.91 (no sharp cut-off); inconclusive means no clear call, values can overlap the other calls; inactive means mostly above about 0.92. The list shows a part of the results.
Can you answer with just one of these options? active, inactive

Consider the following illustrative entries.
O=c1c(Sc2ccc(Cl)cc2)c(Sc2ccc(Cl)cc2)c1=O
active
O=C(N/C=C/c1ccsc1)Nc1cc(C(F)(F)F)cc(C(F)(F)F)c1
active
OC1(C(F)(F)F)CC(C23CC4CC(CC(C4)C2)C3)=NN1 (stereo unspecified)
active
S=C(Nc1ccc(Cl)cc1Cl)N(c1cccc(Cl)c1)c1nc2ccccc2s1
inactive
Cc1nn(Cc2cccc(C(=O)Nc3ccc(Cl)cc3)c2)c(C)c1Br
inactive

For this molecule, state the assay outcome: "Cc1cc(C(=O)Nc2ccc(Cl)cc2)nn1C(C)(C)C"
inactive

----------
Known normalized growth of a selection of compounds
# Assay Info: chemical genetic growth profiling, strain panel (AID 1159580);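 further: tested at 20 µM; growth read once vehicle control cultures reached saturation at 30 °C; 1 = growth at the plate median or of vehicle wells; lower values mean less growth of the strain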
# Settings: S. cerevisiae deletion strains, growth OD, locus YNL128W, strain TEP1, hits give low values
Out of some 5,500 compounds screened, about 2,000 (36%) were called active. Roughly 18% stayed inconclusive and do not appear here. The list shows a part of the results.

Any idea what normalized growth was measured for "CCOC(=O)C(=CNc1cccc(C#N)c1)C(=O)OCC" ?
1.01 (inactive)

----------
# Assay Info: chemical genetic growth profiling, strain panel (AID 1159580);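 further: tested at 20 µM; growth read once vehicle control cultures reached saturation at 30 °C; 1 = growth at the plate median or of vehicle wells; lower values mean less growth of the strain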
# Settings: S. cerevisiae deletion strains, growth OD, locus YGL167C, strain pmr1, hits give low values
The whole screen tested about 5,500 compounds, of which about 2,000 (36%) were called active. Roughly 18% stayed inconclusive and do not appear here. Some of the results follow.
Observed Property: normalized growth
Respond with the number and no other words.

Any idea what normalized growth was measured for "CC(=O)OCC[N+](C)(C)C" ?
1.01

What would you report for "Cc1[nH]c(C)c(Cl)c(=O)c1Cl" ?
0.999

What would you report for "CC1(C)OC(=O)NC1=O" ?
1.01

What would you report for ClC1=C(Cl)C2(Cl)C3C4C=CC(C4)C3C1(Cl)C2(Cl)Cl (stereo unspecified) ?
0.983

What would you report for C[C@H]1CC2C([C@@H](O)C[C@@]3(C)C2CC[C@]3(O)C(=O)CO)[C@@]2(C)C=CC(=O)C=C12 (stereo partly specified) ?
0.988

Numbers sourced from PubChem BioAssay AID1159580.
